Where do these numbers come from? They come from the EternaBench riboswitch data.

system: MS2 coat protein; experiment: apparent Kd, MS2 coat protein; higher = weaker binding; RNA-MaP array; FMN 200 µM where present; settings: designed as: OFF switch for flavin mononucleotide; no ligand
Mark criterion met for reported apparent Kd of 20 nM or greater; mark criterion not met for anything smaller.

Please tell me: is the sequence "GCUGACGAUGUAGGAUAUCUCGACGAUAAGUCGAGAGAAGGACAUGAGGAUCACCCAUGUACUCUAACGUCAGCGAGGAAACUC" at or over 20 nM in terms of apparent Kd?
criterion not met

# bool: apparent Kd of "UGUCAUAAAUAGAAGGGUAGUUGGGUUUUACAUGAGGAUCACCCAUGUAUUAUAGGAUAUGUGUAAAGUUAUUAUUAAAGUAAA" >= 20 nM
criterion met

# check: apparent Kd of "UAAUUUUGUCAAGGAUAUGUAAUAUAGAUUUGAAAACAUGAGGAUCACCCAUGUAUAUGGUGGGAACAGAAGGUGAAUGGAGAA" is greater than or equal to 20 nM
criterion met

Is apparent Kd at least 20 nM? Consider "AGCUGUGGCCGAGGAUAUCACGAACCAUGGAAAACCAUGGAACUCAAACAUGAGGAUCACCCAUGUGAGAAGGCGGUCUCAGCA"
criterion met

// inclusive: apparent Kd at least 20 nM? input: "GGGUGCCCUGCAGAAGCGACAUGAGGAUCACCCAUGUAACGUAGAAGGGCCCGGAACUAAGGUGGGCAGGAUAUACUGUUAGGU"
criterion not met

Is apparent Kd for "UAUAUAAUAAGAGCUGGCUCUAAAACAUGAGGAUCACCCAUGUAGGAUAUCAGCACGAUAAGUGCUGAGAAGGACAACCAGCUC" at or above 20 nM?
criterion not met

New cases:
Quick check, apparent Kd >= 20 nM? "CCUCAUAUUUAGGAUAUGAUUGGUAAUUAUUAGUUAGAAGGAGGUACAUGAGGAUCACCCAUGUAAUAUUUAAA"
criterion met
